Data provenance: patent US20180333382A1

test: Phase one study part 1: single dose plasma PK of free and total DGLA, fasted; assay type: in vivo, human; details: both sexes, human, plasma, oral, single dose 500-4000 mg, read-out: median time to maximum concentration (Tmax), free DGLA
MEASURED PROPERTY: Tmax (h)
Field format: number, assumed h, no unit text.

Q) Reported Tmax, molecule CCCCC/C=C\C/C=C\C/C=C\CCCCCCC(=O)O [DS107G, Dihomo gamma linolenic acid] : ____
A) 4

###

assay: Phase one study part 2: multiple dose (28 days) plasma PK of free and total DGLA; assay type: in vivo, human; settings: both sexes, human, plasma, oral, both dose cohorts, Day 1 and Day 28; read-out: free DGLA median tmax
MEASURED PROPERTY: Tmax

Q) Look up Tmax for this compound: CCCCC/C=C\C/C=C\C/C=C\CCCCCCC(=O)O [DS107G, Dihomo gamma linolenic acid]
A) 4 to 5 h

###

experiment: Phase one study part 2: multiple dose (28 days) plasma PK of free and total DGLA; format: in vivo, human; settings: human, plasma, oral, 2000 mg, 2000 mg once daily; Day 1, 0 to 24 hours; read-out: tmax, median, free DGLA, baseline-corrected plasma
MEASURED PROPERTY: Tmax (h)
Could you give me the number in h? Just the number is fine.

Q) Request the reported Tmax associated with CCCCC/C=C\C/C=C\C/C=C\CCCCCCC(=O)O [DS107G, Dihomo gamma linolenic acid]
A) 4

###

assay: Phase one study part 1: single dose plasma PK of free and total DGLA, fasted; format: in vivo, human; details: both sexes, human, plasma, oral, 2000 mg single dose, read-out: t1/2, median, free DGLA, baseline-corrected plasma (converted)
MEASURED PROPERTY: half-life (h)
State the answer as a number, implicitly in h.

Q) Recorded half-life of CCCCC/C=C\C/C=C\C/C=C\CCCCCCC(=O)O [DS107G, Dihomo gamma linolenic acid] , please.
A) 57.3

###

experiment: Phase one study part 2: multiple dose (28 days) plasma PK of free and total DGLA; type: in vivo, human; conditions: human, plasma, oral, 2000 mg, 2000 mg once daily; Day 28, 0 to 24 hours; read-out: tmax, median, free DGLA, baseline-corrected plasma
MEASURED PROPERTY: Tmax (h)
Entry rule: numbers only, all in h.

Q) Query: Tmax; subject: CCCCC/C=C\C/C=C\C/C=C\CCCCCCC(=O)O [DS107G, Dihomo gamma linolenic acid]
A) 4

###

test: Phase one study part 2: multiple dose (28 days) plasma PK of free and total DGLA; type: in vivo, human; settings: human, plasma, oral, 4000 mg, 4000 mg once daily; Day 1, 0 to 24 hours; read-out: t1/2, median, free DGLA, baseline-corrected plasma (converted)
MEASURED PROPERTY: half-life

Q) Param item = CCCCC/C=C\C/C=C\C/C=C\CCCCCCC(=O)O [DS107G, Dihomo gamma linolenic acid] ; retrieve measured half-life.
A) 5.92 h

###

experiment: Phase one study part 2: multiple dose (28 days) plasma PK of free and total DGLA; assay type: in vivo, human; conditions: human, plasma, oral, 2000 mg, 2000 mg once daily; Day 28, 0 to 24 hours; read-out: t1/2, median, free DGLA, baseline-corrected plasma (converted)
MEASURED PROPERTY: half-life

Q) Tell me the measured half-life of CCCCC/C=C\C/C=C\C/C=C\CCCCCCC(=O)O [DS107G, Dihomo gamma linolenic acid] , please.
A) 14 h
